FYI, the data here is from PubChem BioAssay AID2060495.

tested on: 521955-158-R2-J5-PDC complex spheroid viability; assay: Anticancer human tumor 521955-158-R2-J5-PDC patient-derived pancreatic carcinoma cell line growth inhibition [GQUAD]; conditions: second compound 10 µM; first compound 0.0316 µM; stronger effect = lower value
Property: viability, T/C; scope: individual compounds
Value Type: viability, T/C

{"columns": ["Compound", "Reported Value"],
 "data": [
  ["CC(C)n1c(=O)n(C)c2cnc3cc(F)c(-c4ccc(OCCCN5CCCCC5)nc4)cc3c21 + Cc1[nH]c2ccc(F)cc2c1-c1nc2c3cccnc3c3ncccc3c2[nH]1", "114%"],
  ["C=CCn1c(=O)c2cnc(Nc3ccc(N4CCN(C)CC4)cc3)nc2n1-c1cccc(C(C)(C)O)n1 + CN(C)c1ccc(Nc2c3ccc(NC(=O)CCN4CCCC4)cc3nc3cc(NC(=O)CCN4CCCC4)ccc23)cc1", "65.1%"],
  ["Nc1ccn(C2OC(CO)C(O)C2(F)F)c(=O)n1 (stereo not given) + CN(C)c1ccc(Nc2c3ccc(NC(=O)CCN4CCCC4)cc3nc3cc(NC(=O)CCN4CCCC4)ccc23)cc1", "64.8%"],
  ["CC(C)(O)C1CCC(Nc2ccc3ncc(-c4cccc(C(F)(F)F)c4)n3n2)CC1 (stereo not given) + Cc1[nH]c2ccc(F)cc2c1-c1nc2c3cccnc3c3ncccc3c2[nH]1", "83.2%"],
  ["O=C(NO)c1cnc(N2CCN(S(=O)(=O)c3ccc4ccccc4c3)CC2)nc1 + CN(C)c1ccc(Nc2c3ccc(NC(=O)CCN4CCCC4)cc3nc3cc(NC(=O)CCN4CCCC4)ccc23)cc1", "94%"]
]}

====

Property: viability, T/C; scope: individual compounds
system: 521955-158-R2-J5-PDC complex spheroid viability; test: Anticancer human tumor 521955-158-R2-J5-PDC cell line growth inhibition [GQUAD]; conditions: second compound 10 µM; first compound 0.1 µM; stronger effect = lower value;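 further: spheroids exposed to agents for one week before reading; 100% = DMSO vehicle control viability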
Value Type: viability, T/C

{"columns": ["Compound", "Value Type", "Reported Value"],
 "data": [
  ["COc1ncnc(C2CC2)c1-c1ncc2cnn(Cc3ccc(-c4nc(C(F)(F)F)cn4C(C)C)cc3)c2n1 + Cc1[nH]c2ccc(F)cc2c1-c1nc2c3cccnc3c3ncccc3c2[nH]1", "viability, T/C", "68.6%"],
  ["CCCS(=O)(=O)Nc1ccc(F)c(C(=O)c2c[nH]c3ncc(-c4ccc(Cl)cc4)cc23)c1F + Cc1[nH]c2ccc(F)cc2c1-c1nc2c3cccnc3c3ncccc3c2[nH]1", "viability, T/C", "84.9%"],
  ["Nc1ccn(C2OC(CO)C(O)C2(F)F)c(=O)n1 (stereo unspecified) + Cc1cnc(CNC(=O)c2c(=O)c3ccc(N4CCCN(C)CC4)nc3n3c2sc2ccccc23)cn1", "viability, T/C", "15.7%"],
  ["CC1COCCN1c1cc(-c2ccnn2C)c2ccnc(-c3ccn[nH]3)c2n1 (stereo unspecified) + Cc1cnc(CNC(=O)c2c(=O)c3ccc(N4CCCN(C)CC4)nc3n3c2sc2ccccc23)cn1", "viability, T/C", "12.7%"],
  ["CC(C)(O)C1CCC(Nc2ccc3ncc(-c4cccc(C(F)(F)F)c4)n3n2)CC1 (stereo unspecified) + Cc1[nH]c2ccc(F)cc2c1-c1nc2c3cccnc3c3ncccc3c2[nH]1", "viability, T/C", "87.8%"],
  ["C=CCn1c(=O)c2cnc(Nc3ccc(N4CCN(C)CC4)cc3)nc2n1-c1cccc(C(C)(C)O)n1 + Cc1cnc(CNC(=O)c2c(=O)c3ccc(N4CCCN(C)CC4)nc3n3c2sc2ccccc23)cn1", "viability, T/C", "15%"],
  ["Nc1ccn(C2OC(CO)C(O)C2(F)F)c(=O)n1 (stereo unspecified) + CN(C)c1ccc(Nc2c3ccc(NC(=O)CCN4CCCC4)cc3nc3cc(NC(=O)CCN4CCCC4)ccc23)cc1", "viability, T/C", "39.9%"],
  ["C#Cc1c(F)ccc2cc(O)cc(-c3ncc4c(N5CC6CCC(C5)N6)nc(OCC56CCCN5CC(F)C6)nc4c3F)c12 (stereo unspecified) + Cc1cnc(CNC(=O)c2c(=O)c3ccc(N4CCCN(C)CC4)nc3n3c2sc2ccccc23)cn1", "viability, T/C", "0.7%"],
  ["CC(=O)O[C@H]1C(=O)[C@@]2(C)[C@H]([C@H](OC(=O)c3ccccc3)[C@]3(O)C[C@H](OC(=O)[C@H](O)[C@@H](NC(=O)c4ccccc4)c4ccccc4)C(C)=C1C3(C)C)[C@]1(OC(C)=O)CO[C@@H]1C[C@@H]2O + Cc1[nH]c2ccc(F)cc2c1-c1nc2c3cccnc3c3ncccc3c2[nH]1", "viability, T/C", "41.9%"],
  ["Cc1cccc(N(C)C(=O)C2C(O)CCN2c2nc(C)cc(C(F)(F)F)c2C#N)c1 (stereo unspecified) + Cc1cnc(CNC(=O)c2c(=O)c3ccc(N4CCCN(C)CC4)nc3n3c2sc2ccccc23)cn1", "viability, T/C", "19.2%"],
  ["CC1COCCN1c1cc(C2(S(C)(=N)=O)CC2)nc(-c2ccnc3[nH]ccc23)n1 (stereo unspecified) + Cc1cnc(CNC(=O)c2c(=O)c3ccc(N4CCCN(C)CC4)nc3n3c2sc2ccccc23)cn1", "viability, T/C", "19.1%"]
]}

====

test system: 521955-158-R2-J5-PDC complex spheroid viability; experiment: Anticancer human tumor 521955-158-R2-J5-PDC cell line growth inhibition [GQUAD]; details: second compound 0.1 µM; first compound 3.16 µM; stronger effect = lower value;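 further: spheroids exposed to agents for one week before reading; 100% = DMSO vehicle control viability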
Criterion: viability, T/C strictly under 50%. Met: condition met. Not met: condition not met.

{"columns": ["Compound", "Class Assignment"],
 "data": [
  ["C#Cc1c(F)ccc2cc(O)cc(-c3ncc4c(N5CC6CCC(C5)N6)nc(OCC56CCCN5CC(F)C6)nc4c3F)c12 (stereo not given) + Cc1cnc(CNC(=O)c2c(=O)c3ccc(N4CCCN(C)CC4)nc3n3c2sc2ccccc23)cn1", "condition met"],
  ["CC(C)n1c(=O)n(C)c2cnc3cc(F)c(-c4ccc(OCCCN5CCCCC5)nc4)cc3c21 + Cc1[nH]c2ccc(F)cc2c1-c1nc2c3cccnc3c3ncccc3c2[nH]1", "condition not met"],
  ["COc1cc(C2c3cc4c(cc3C(OC3OC5COC(C)OC5C(O)C3O)C3COC(=O)C23)OCO4)cc(OC)c1O (stereo not given) + Cc1[nH]c2ccc(F)cc2c1-c1nc2c3cccnc3c3ncccc3c2[nH]1", "condition met"],
  ["C=CC(=O)N1CCN(c2nc(=O)n(-c3c(C)ccnc3C(C)C)c3nc(-c4c(O)cccc4F)c(F)cc23)C(C)C1 (stereo not given) + Cc1[nH]c2ccc(F)cc2c1-c1nc2c3cccnc3c3ncccc3c2[nH]1", "condition not met"]
]}

====

Tested on: 521955-158-R2-J5-PDC complex spheroid viability
Test: Anticancer human tumor 521955-158-R2-J5-PDC cell line growth inhibition [GQUAD];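 further: spheroids exposed to agents for one week before reading; 100% = DMSO vehicle control viability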
Conditions: second compound 10 µM; first compound 0.1 µM; stronger effect = lower value
Source text: DNA G-quadruplex Stabilizer Agents in Combinations in Complex Spheroids A high-throughput screen of multi-cell type tumor spheroids was designed to identify active combinations of DNA G-quadruplex stabilizer agents and targeted small molecules. […] Compounds. […] If the clinical Cmax for an agent had not been determined, the highest concentration tested was 10 microM. […]
Criterion: viability, T/C strictly under 60%. Met: Y. Not met: N.

{"columns": ["Compound", "Class Assignment"],
 "data": [
  ["O=c1[nH]cc(F)c(=O)[nH]1 + CN(C)c1ccc(Nc2c3ccc(NC(=O)CCN4CCCC4)cc3nc3cc(NC(=O)CCN4CCCC4)ccc23)cc1", "Y"],
  ["Cc1cccc(N(C)C(=O)C2C(O)CCN2c2nc(C)cc(C(F)(F)F)c2C#N)c1 (stereo unspecified) + Cc1[nH]c2ccc(F)cc2c1-c1nc2c3cccnc3c3ncccc3c2[nH]1", "N"],
  ["CCCS(=O)(=O)Nc1ccc(F)c(C(=O)c2c[nH]c3ncc(-c4ccc(Cl)cc4)cc23)c1F + Cc1cnc(CNC(=O)c2c(=O)c3ccc(N4CCCN(C)CC4)nc3n3c2sc2ccccc23)cn1", "Y"],
  ["CC1COCCN1c1cc(C2(O)CC3CCC(C2)O3)c2cnn(-c3ccn[nH]3)c2n1 (stereo unspecified) + Cc1cnc(CNC(=O)c2c(=O)c3ccc(N4CCCN(C)CC4)nc3n3c2sc2ccccc23)cn1", "Y"],
  ["CC(C)(O)C1CCC(Nc2ccc3ncc(-c4cccc(C(F)(F)F)c4)n3n2)CC1 (stereo unspecified) + Cc1cnc(CNC(=O)c2c(=O)c3ccc(N4CCCN(C)CC4)nc3n3c2sc2ccccc23)cn1", "Y"],
  ["C#Cc1c(F)ccc2cc(O)cc(-c3ncc4c(N5CC6CCC(C5)N6)nc(OCC56CCCN5CC(F)C6)nc4c3F)c12 (stereo unspecified) + Cc1[nH]c2ccc(F)cc2c1-c1nc2c3cccnc3c3ncccc3c2[nH]1", "Y"],
  ["CC1COCCN1c1cc(-c2ccnn2C)c2ccnc(-c3ccn[nH]3)c2n1 (stereo unspecified) + Cc1[nH]c2ccc(F)cc2c1-c1nc2c3cccnc3c3ncccc3c2[nH]1", "Y"],
  ["CC(C)(O)C1CCC(Nc2ccc3ncc(-c4cccc(C(F)(F)F)c4)n3n2)CC1 (stereo unspecified) + CN(C)c1ccc(Nc2c3ccc(NC(=O)CCN4CCCC4)cc3nc3cc(NC(=O)CCN4CCCC4)ccc23)cc1", "N"],
  ["COc1cc(C2c3cc4c(cc3C(OC3OC5COC(C)OC5C(O)C3O)C3COC(=O)C23)OCO4)cc(OC)c1O (stereo unspecified) + CN(C)c1ccc(Nc2c3ccc(NC(=O)CCN4CCCC4)cc3nc3cc(NC(=O)CCN4CCCC4)ccc23)cc1", "N"],
  ["CC(C)n1c(=O)n(C)c2cnc3cc(F)c(-c4ccc(OCCCN5CCCCC5)nc4)cc3c21 + CN(C)c1ccc(Nc2c3ccc(NC(=O)CCN4CCCC4)cc3nc3cc(NC(=O)CCN4CCCC4)ccc23)cc1", "Y"]
]}
